pest or weed control at 1000 g/ha by entry:
- System: Alopecurus myosuroides (ALOMY)
- PROCEDURE_DETAILS: Pre-emergence biological efficacy, glasshouse pot test
- Type: in vivo
- MEASUREMENT_CONDITIONS: 312 h, pre-emergence, rate 1,000 g/ha, evaluated after 13 days (100=total damage to plant; 0=no damage), read-out: Percentage damage caused to weed species, ALOMY
Unit % implied. Number only.

Lab note: COC(=O)c1nc(C2CC2)nc(N(C)Cc2ccc([N+](=O)[O-])cc2)c1Cl [Compound 5-92] gave pest or weed control at 1000 g/ha of 20

Please fill in: pest or weed control at 1000 g/ha reported for COC(=O)c1nc(C2CC2)nc(N(C)Cc2ccncc2)c1Cl [Compound 5-160] = 0

Measured pest or weed control at 1000 g/ha of COC(=O)c1nc(-c2ccc(OC)cc2F)nc(NCc2ccco2)c1Cl [Compound 258-48] : 30

Documented pest or weed control at 1000 g/ha of COC(=O)c1nc(C2CC2)nc(N(C)Cc2cccc(OC)c2)c1Cl [Compound 5-79] : 0

// recorded pest or weed control at 1000 g/ha for COC(=O)c1nc(-c2ccc(Cl)c(F)c2)nc(NCc2ccco2)c1Cl [Compound 222-48] : 30

***
What the record says about COC(=O)c1nc(C2CC2)nc(N(C)Cc2ccc(Br)cc2)c1Cl [Compound 5-69] : pest or weed control at 1000 g/ha is 10

The reported value for COC(=O)c1nc(-c2ccc(C)c(C)c2)nc(NCc2ccco2)c1Cl [Compound 255-48] in terms of pest or weed control at 1000 g/ha is 0

So, COC(=O)c1nc(C2CC2)nc(N[C@@H](Cc2ccccc2)C(=O)OC(C)(C)C)c1Cl [4-293 (S)] ? Its pest or weed control at 1000 g/ha was 10

---

- Tested on: Solanum nigrum (SOLNI)
- PROCEDURE_DETAILS: Pre-emergence biological efficacy, glasshouse pot test
- Assay type: in vivo
- MEASUREMENT_CONDITIONS: 312 h, pre-emergence, rate 1,000 g/ha, evaluated after 13 days (100=total damage to plant; 0=no damage), read-out: Percentage damage caused to weed species, SOLNI
In this section, each of the molecules is paired with its reported pest or weed control at 1000 g/ha.
Please give a number only; it is taken to be in %.

Example molecules with recorded pest or weed control at 1000 g/ha:
Noted for C=CCN(Cc1cccc(OC)c1OC)c1nc(C2CC2)nc(C(=O)OC)c1Cl : its pest or weed control at 1000 g/ha reads 20

Record COC(=O)c1nc(C2CC2)nc(N(CCC#N)Cc2ccccc2)c1Cl . Reported pest or weed control at 1000 g/ha: 0

Given item CCOc1ccc(CN(C)c2nc(C3CC3)nc(C(=O)OC)c2Cl)cc1OCC , the value recorded as its pest or weed control at 1000 g/ha is 20

Proceed to the following item.
The molecule identified as COC(=O)c1nc(C2CC2)nc(N(C)Cc2ccc(OC)cc2)c1Cl registered its pest or weed control at 1000 g/ha at 30

---

Measured pest or weed control at 1000 g/ha by item
- Test system: Amaranthus retoflexus (AMARE)
- PROCEDURE_DETAILS: Pre-emergence biological efficacy, glasshouse pot test
- Assay type: in vivo
- MEASUREMENT_CONDITIONS: Amaranthus retroflexus, 312 h; pre-emergence, 1,000 g/ha, evaluated after 13 days (100=total damage; 0=no damage); read-out: Percentage damage AMARE
I only need the number, in %, no unit after it.

Briefly, pest or weed control at 1000 g/ha measured for COC(=O)c1nc(C2CC2)nc(N[C@@H](C)C2CCCCC2)c1Cl [4-173 (S)] : 20

Reported pest or weed control at 1000 g/ha ( COC(=O)c1nc(C2CC2)nc(NCC2CCC=CO2)c1Cl (stereo not drawn) [Compound 4-56] ) = 100

molecule COC(=O)c1nc(C2CC2)nc(NCC2(O)CCCCC2)c1Cl [Compound 4-50] , pest or weed control at 1000 g/ha observed: 100

COC(=O)c1nc(C2CC2)nc(N[C@H](CO)[C@H](O)c2ccc([N+](=O)[O-])cc2)c1Cl [4-275 (R,R)] yielded pest or weed control at 1000 g/ha of 100

molecule COC(=O)c1nc(C2CC2)nc(NC2(c3ccc(Cl)cc3)CC2)c1Cl [Compound 4-5] , pest or weed control at 1000 g/ha observed: 40

The reported pest or weed control at 1000 g/ha of the molecule COC(=O)c1nc(C2CC2)nc(N[C@@H](C)c2cccc(OC)c2)c1Cl [4-180 (S)] was 20

Lab note: COC(=O)c1nc(C2CC2)nc(NCC(O)c2cccc(O)c2)c1Cl (stereo not drawn) [Compound 4-258] gave pest or weed control at 1000 g/ha of 100

Documented pest or weed control at 1000 g/ha of Cc1ccc(CNc2nc(C3CC3)nc(C(=O)O)c2Cl)o1 [Compound 1-135] : 100

The recorded pest or weed control at 1000 g/ha for entry COC(=O)c1nc(C2CC2)nc(NCc2cccnc2)c1Cl [Compound 4-156] equals 50

Noted for COC(=O)c1nc(C2CC2)nc(NCCCn2ccnc2)c1Cl [Compound 4-250] : its pest or weed control at 1000 g/ha reads 90

Reported pest or weed control at 1000 g/ha of COC(=O)c1nc(C2CC2)nc(NCc2cccc([N+](=O)[O-])c2)c1Cl [Compound 4-91] : 50

Form: molecule = Cc1ccc(CNc2nc(C3CC3)nc(C(=O)O)c2Cl)cc1 [Compound 1-73] ; pest or weed control at 1000 g/ha = 70

---

- Test system: Alopecurus myosuroides (ALOMY)
- PROCEDURE_DETAILS: Post-emergence biological efficacy, glasshouse pot test
- Assay type: in vivo
- MEASUREMENT_CONDITIONS: 312 h, post-emergence, 1,000 g/ha, evaluated after 13 days (100=total damage; 0=no damage), read-out: Percentage damage caused to weed species, ALOMY
MEASURED_METRIC: pest or weed control at 1000 g/ha (%)
Write it as a number; the unit % goes unstated.

Worked set:
According to the records, this compound COC(=O)c1nc(C2CC2)nc(NC(C)c2ccc(Cl)cc2)c1Cl (stereo not drawn) displays pest or weed control at 1000 g/ha of 20

pest or weed control at 1000 g/ha measured on COC(=O)c1nc(C2CC2)nc(NC2(/C=C/c3ccccc3Cl)CC2)c1Cl = 10

The compound identified as COC(=O)c1nc(C2CC2)nc(NCCc2cccs2)c1Cl registered its pest or weed control at 1000 g/ha at 10

So for COC(=O)c1nc(C2CC2)nc(NCc2ncccc2C)c1Cl , the logged pest or weed control at 1000 g/ha turned out to be 70

Lab book: pest or weed control at 1000 g/ha of COC(=O)c1nc(C2CC2)nc(NC2CCCC2)c1Cl noted as 30

For record CC(Nc1nc(C2CC2)nc(C(=O)O)c1Cl)c1ccc(Cl)cc1 (stereo not drawn) the listed pest or weed control at 1000 g/ha is 10

The compound listed as COC(=O)c1nc(C2CC2)nc(NCC(C)(F)c2cccc(C(F)(F)F)c2)c1Cl (stereo not drawn) has a reported pest or weed control at 1000 g/ha of 0

Lab note: COC(=O)c1nc(C2CC2)nc(NC(c2ccccc2)c2ccc(Cl)cc2)c1Cl (stereo not drawn) gave pest or weed control at 1000 g/ha of 10

Lab note: measured pest or weed control at 1000 g/ha of COC(=O)c1nc(C2CC2)nc(NCc2ccc(OC)cc2)c1Cl was 30

Entry COC(=O)c1nc(C2CC2)nc(NCc2ccsc2Br)c1Cl — recorded pest or weed control at 1000 g/ha = 20

Further cases:
The compound COC(=O)c1nc(C2CC2)nc(N[C@H](C)c2ccc3ccccc3c2)c1Cl [4-185 (R)] showed pest or weed control at 1000 g/ha equal to 0

Please fill in: pest or weed control at 1000 g/ha reported for COC(=O)c1nc(C2CC2)nc(NCc2cccc(OC)c2OC)c1Cl = 20

COC(=O)c1nc(C2CC2)nc(NCCSCc2c(Cl)cccc2Cl)c1Cl yielded pest or weed control at 1000 g/ha of 0

Lookup result for COC(=O)c1nc(C2CC2)nc(NC2(c3ccc(Cl)cc3Cl)CC2)c1Cl ; measured pest or weed control at 1000 g/ha: 20

Recorded result, COC(=O)c1nc(C2CC2)nc(N[C@@H](C)C(=O)OCc2ccccc2)c1Cl [4-272 (S)] , pest or weed control at 1000 g/ha: 20

Item: COC(=O)c1nc(C2CC2)nc(N[C@H](CO)CSCc2ccccc2)c1Cl [4-276 (R)] | pest or weed control at 1000 g/ha: 20

Briefly, pest or weed control at 1000 g/ha measured for COC(=O)c1nc(C2CC2)nc(NCc2ccccc2[N+](=O)[O-])c1Cl : 50

Entry source: patent US20110086759A1
